Tested on: MDA-MB-435
METHOD_NOTES: NCI tumour cell line growth inhibition, 48 h
Activity calls are given as the source filed them. No stated cut-off is given here; in the data, active = GI50 up to about 1.1 µM and inactive = higher.
REPORTED_ENDPOINT: GI50

1) CSc1cc(Cl)c(C)cc1S(=O)(=O)NC(=O)NNc1ccccn1 ... > 100 µM (inactive)
2) COc1cc(C2c3c(ccc4ccccc34)C(=O)C3CCC(=O)N32)cc(OC)c1O (stereo not drawn) ... > 25 µM (inactive)
3) O=c1c2ccccc2c2ccccc2c(=O)n1Cc1ccc2c(c1)OCO2 ... 6.17 µM (inactive)
4) CC(=O)OCC1OC(Oc2cc(C)c(O)cc2C/C=C(\C)CC/C=C(\C)C[C@@H](C=C(C)C)OC(C)=O)C(O)C(OC(C)=O)C1OC(C)=O (stereo partly drawn) ... 16.5 µM (inactive)
5) Cc1nn(-c2ccccc2)c2c1N=C(C(=O)O)CC(c1ccccc1)=N2 ... > 10 µM (inactive)
6) O=C(O)CN1CCNCCN(CP(=O)(O)O)CC1 ... > 53 µM (inactive)
7) COc1nc(N=P(c2ccccc2)(c2ccccc2)c2ccccc2)cc(=O)n1C ... > 100 µM (inactive)
8) O=C(N/N=C/c1ccccc1)c1cccc2nc3ccccc3nc12 ... 65 µM (inactive)
9) CCOC(=O)C1CN(C2CC2)CCC1=O (stereo not drawn) ... > 100 µM (inactive)
10) CC(NC(=O)C(N)CC(=O)O)NC(=O)N1CCCC1 (stereo not drawn) ... > 100 µM (inactive)
11) COc1cc([N+](=O)[O-])c(S(=O)(=O)O)cc1NS(=O)(=O)c1ccc(C)cc1 ... > 100 µM (inactive)
12) O=c1c2ccccc2[nH]c2c(Cl)cc(Cl)c(NC3CCCCC3)c12 ... 16.9 µM (inactive)
13) OC(C1CCCC1=N/N=C1/CCCC1C(O)(C(F)(F)Cl)C(F)(F)Cl)(C(F)(F)Cl)C(F)(F)Cl (stereo not drawn) ... > 10 µM (inactive)

###

Tested on: PC-3
METHOD_NOTES: NCI tumour cell line growth inhibition, 48 h
The source made the active and inactive calls. Rule as the data show it: active = GI50 up to about 1.1 µM and inactive = higher.
Outcomes: active, inactive

1) Cc1c(CN2CCOCC2)c(CN2CCOCC2)c(C)n1-c1ccc(Cl)cn1 ... inactive
2) Cc1ccc(O)c(C2=CC3=NNC(=O)C3C(c3cccc(Cl)c3)C2)c1 (stereo not drawn) ... inactive
3) O=C(OCc1ccccc1)N1CCNCCNCCN(C(=O)OCc2ccccc2)CCNCC1 ... inactive
4) CC[C@@]1(O)C(=O)OCc2c1cc1n(c2=O)Cc2c-1nc1ccccc1c2/C=N\NC(=O)C(C)N (stereo partly drawn) ... inactive
5) Cc1ccc(-c2[nH]c(=O)n(C3OC(CO)C(O)C(O)C3O)c(=O)c2C#N)cc1 (stereo not drawn) ... inactive
6) COc1ccccc1N1CCN(S(=O)(=O)c2ccc(Cl)cc2)C1=N ... inactive
7) COc1cc(C2C3=C(COC3=O)Oc3cc4c(cc32)OCO4)cc(OC)c1OC(C)=O (stereo not drawn) ... active
8) COc1ccc2nc(N/N=C/c3ccc(C)s3)cc(C)c2c1 ... inactive
9) COC(=O)[C@H](Cc1ccccc1)NP(=O)(O)OCC1OC(n2cc(C)c(=O)[nH]c2=O)CC1N=[N+]=[N-] (stereo partly drawn) ... inactive
10) O=C(NCCCN1CCN(CCCNC(=O)c2cc(-c3ccccc3)nc3ccccc23)CC1)c1cc(-c2ccccc2)nc2ccccc12 ... inactive
11) COc1cc2oc(-c3ccc4c(c3)OCO4)c(OC)c(=O)c2c(O)c1OC ... inactive
12) CC1(C)OC2C(CO)OC(n3ccc(=O)[nH]c3=O)C2O1 (stereo not drawn) ... inactive
13) Nc1ccc(Oc2ccc(C3(c4ccc(Oc5ccc(N)c(O)c5)cc4)C4CC5C6CC7CC5C3C(C7)C6C4)cc2)cc1O ... inactive

###

Tested on: HCT-116
METHOD_NOTES: NCI tumour cell line growth inhibition, 48 h
Active and inactive are the calls of the source. Cut-off read from the data, not from the text of the source: active = GI50 up to about 1.1 µM and inactive = higher.
Outcomes: active, inactive

1) C=CC(=O)N1C/C(=C\c2ccc(OC)cc2)C(=O)/C(=C/c2ccc(OC)cc2)C1 ... active
2) O=C1OC(c2ccccc2)=N/C1=C/NC(Cc1ccccc1)C(=O)O (centres undefined) ... inactive
3) COC(=O)N[C@H](C(=O)NC(OCc1ccccc1)C1COC(C)(C)O1)C(C)O[Si](C)(C)C(C)(C)C (some centres undefined) ... inactive
4) CC(/C=N\NC(=S)N1CCCCC1)=N/NC(=S)N1CCCCC1 ... active
5) COc1cc(C2c3c(ccc4ccccc34)C(=O)C3CCC(=O)N32)cc(OC)c1O (centres undefined) ... inactive
6) CCCNC1=Nc2ccccc2NC(C)C1 (centres undefined) ... inactive
7) CSc1cc(Cl)c(C)cc1S(=O)(=O)NC(=O)NNc1ccccn1 ... inactive
8) CCOC(=O)c1[nH]c(COC(C)=O)c(CCCOC(C)=O)c1CCCOC(C)=O ... inactive
9) C=CCCON(C(=O)OC(C)(C)C)c1ccccc1 ... inactive
10) N=c1n(C(=O)N2CCCC2)c2cc(Cl)ccc2n1C1=NCCN1 ... inactive
11) N/N=C(\C(=O)Nc1ccc([N+](=O)[O-])cc1)C(C1=Nc2cc([N+](=O)[O-])ccc2NC1)[N+](=O)[O-] (centres undefined) ... inactive
12) O=[N+]([O-])c1cc(Cl)cc2cc(Br)cnc12 ... inactive
13) COc1cc(CO)cc2c1[nH]c1ccccc12 [KOENOLINE] ... inactive
14) COC(OC)c1cccc2c1C(=O)CCC1(CC2)OCCCCO1 ... inactive

###

Tested on: IGROV-1
METHOD_NOTES: NCI tumour cell line growth inhibition, 48 h
The source made the active and inactive calls. Rule as the data show it: active = GI50 up to about 1.1 µM and inactive = higher.
List of GI50 values.
REPORTED_ENDPOINT: GI50

1. O=c1cc(O)c1=O ... > 100 µM (inactive)
2. Cn1/c(=N\c2ccc(Cl)cc2)sc2ccccc21 ... 55.3 µM (inactive)
3. N#Cc1ccc(Oc2cccc(Oc3ccccc3)c2)cc1C#N ... > 10 µM (inactive)
4. COc1nc(N=P(c2ccccc2)(c2ccccc2)c2ccccc2)cc(=O)n1C ... > 100 µM (inactive)
5. O=C(O)CSCCc1ccccc1 ... > 100 µM (inactive)
6. COc1cccc(/C(CC(O)(C(F)(F)F)C(F)(F)F)=N\N(C)C)c1 ... > 100 µM (inactive)
7. COc1cc([N+](=O)[O-])c(S(=O)(=O)O)cc1NS(=O)(=O)c1ccc(C)cc1 ... > 100 µM (inactive)
8. COC(=O)c1cc(NC(=O)Cn2c3ccccc3c3ccccc32)cn1C ... 24.3 µM (inactive)
9. CC(C)C1=C(O)C(=O)C2=C(C1=O)C(OC=O)C(O)C1C(C)(C)CCCC21C (stereo unspecified) ... 10.3 µM (inactive)
10. O=C1NC(NCc2ccc(F)cc2)=N/C1=C\c1ccccc1Cl ... 19.2 µM (inactive)
11. CC#CCCCC1(C)CCCNC1=S (stereo unspecified) ... > 10 µM (inactive)
12. C1CN(C23OC4(N5CCOCC5)C5C6CC(C7C6C4C72)C53)CCO1 (stereo unspecified) ... > 100 µM (inactive)
13. O=c1oc2ccc([N+](=O)[O-])cc2c(Nc2ccc3c(c2)S(=O)(=O)c2ccccc2O3)c1[N+](=O)[O-] ... > 100 µM (inactive)
14. OC(c1ccccc1)C(F)(F)c1nc2ccccc2o1 (stereo unspecified) ... > 100 µM (inactive)
15. Nc1nc(-c2cc(-c3cccc4ccccc34)nc(N)n2)cc(-c2cccc3ccccc23)n1 ... > 100 µM (inactive)
16. CC(=O)/C(=N\O)C(=O)Nc1ccc(Cl)cc1Cl ... > 100 µM (inactive)

###

System: A549
METHOD_NOTES: NCI tumour cell line growth inhibition, 48 h
Activity calls are given as the source filed them. Cut-off read from the data, not from the text of the source: active = GI50 up to about 1.1 µM and inactive = higher.
List of GI50 values.
REPORTED_ENDPOINT: GI50

1. Cc1c(CN2CCOCC2)c(CN2CCOCC2)c(C)n1-c1ccc(Cl)cn1 ... > 100 µM (inactive)
2. O=C1OC(=O)C23CSCC12C1C=CC3O1 (configuration not stated) ... > 100 µM (inactive)
3. CC1(Br)S(=O)(=O)OCCOS1(=O)=O ... > 100 µM (inactive)
4. O=C(OCc1ccccc1)c1ccc(NCc2cc(O)ccc2O)cc1 ... 3.9 µM (inactive)
5. CCOc1ccc(C2Oc3c(cccc3OC)C=C2[N+](=O)[O-])cc1OCC (configuration not stated) ... 17.3 µM (inactive)
6. O=c1oc2ccccc2c(Nc2ccc3c(c2)Sc2ccccc2O3)c1[N+](=O)[O-] ... 21.1 µM (inactive)
7. CCOC(=O)N1CCN(c2nc(C)n(-c3ccccc3)c(=S)c2C#N)CC1 ... 97.9 µM (inactive)

The measured values listed here are drawn from ChEMBL document CHEMBL1201862.
